Biological target: UniProtKB P01031
Test: Human hemolysis assay (RBC lysis assay using complete human sera)
Assay type: cell-based
Parameters: with complete human sera (Complement Technology, Tyler Tex.) and polypeptides; tissue Complement Technology, Tyler Tex; host or cells: complete human serum
Details: inhibition of lysis of antibody-sensitized sheep erythrocytes, complete human sera
Starred links: 1 amine or outer side, 2 acyl side, 3 side chain; linkers in the order of their positions; H or OH if unused. Positions of bridges follow the written chain, without caps; N, C: chain ends. Non-standard residues stand in square brackets, D forms with d. Residues, ends and D or L forms follow the SMILES beside them. Trp(7-aza) = N[C@@H](Cc1c[nH]c2ncccc12)C(=O)O; Phe(4-F) = N[C@@H](Cc1ccc(F)cc1)C(=O)O; mXylylene = c1cc(C[*:1])cc(C[*:2])c1; Phg = N[C@H](C(=O)O)c1ccccc1; Tle = CC(C)(C)[C@H](N)C(=O)O; NMeS = CN[C@@H](CO)C(=O)O; Nva = CCC[C@H](N)C(=O)O
metricName: IC50 (nM)
Give bare numbers, in nM.

Here is how some molecules turned out for IC50.
molecule	unitTag	IC50
CCC[C@H](NC(C)=O)C(=O)N[C@@H](CS)C(=O)N[C@@H](Cc1ccc(O)cc1)C(=O)N[C@@H](CCC(=O)O)C(=O)N[C@@H](CC(N)=O)C(=O)N[C@H](C(=O)N[C@@H](Cc1ccc(O)cc1)C(=O)N[C@@H](Cc1c[nH]c2ncccc12)C(=O)N[C@@H](CCC(=O)O)C(=O)N[C@@H](Cc1ccc(O)cc1)C(=O)N1CCC[C@H]1C(=O)N[C@H](C(=O)N1CCC[C@H]1C(N)=O)c1ccccc1)C(C)(C)C [Compound R3003] (Ac-[Nva]CYEN[Tle]Y[Trp(7-aza)]EYP[Phg]P-NH2)	nM	13.9
CC(=O)N[C@H]1CSCc2cccc(c2)CSC[C@@H](C(=O)N[C@@H](CC(=O)O)C(=O)N[C@H](C(=O)N[C@@H](Cc2ccc(O)cc2)C(=O)N[C@@H](Cc2c[nH]c3ccccc23)C(=O)N[C@@H](CCC(=O)O)C(=O)N[C@@H](Cc2ccccc2)C(N)=O)C(C)C)NC(=O)[C@H](Cc2ccccc2)NC(=O)[C@H](CCCNC(=N)N)NC(=O)[C@H](CCC(=O)O)NC(=O)[C@H](C(C)C)NC1=O [Compound R3048] (Ac-CVERFCDVYWEF-NH2; linker 1-6 via mXylylene)	nM	19.3
CC(=O)N[C@H]1CSCc2cccc(c2)CSC[C@@H](C(=O)N[C@@H](CC(=O)O)C(=O)N[C@H](C(=O)N[C@@H](Cc2ccc(O)cc2)C(=O)N[C@@H](Cc2c[nH]c3ccccc23)C(=O)N[C@@H](CCC(=O)O)C(=O)N[C@@H](Cc2ccc(O)cc2)C(=O)N2CCC[C@H]2C(N)=O)C(C)(C)C)NC(=O)[C@H](Cc2ccccc2)NC(=O)[C@H](CCCNC(=N)N)NC(=O)[C@H](CCC(=O)O)NC(=O)[C@H](C(C)C)NC1=O [Compound R3143] (Ac-CVERFCD[Tle]YWEYP-NH2; linker 1-6 via mXylylene)	nM	18.6

Continue with the molecule presented below.
Using the record for CCC[C@H](NC(=O)[C@@H]1CSCc2cccc(c2)CSC[C@H](NC(=O)[C@H](CCC)NC(C)=O)C(=O)N[C@@H](c2ccccc2)C(=O)N[C@@H]([C@@H](C)O)C(=O)N[C@@H](Cc2c[nH]c3ncccc23)C(=O)N[C@@H](CCC(=O)O)C(=O)N[C@@H](Cc2ccc(F)cc2)C(=O)N(C)[C@@H](CO)C(=O)N[C@@H](Cc2c[nH]cn2)C(=O)N1)C(N)=O [Compound R3073] (Ac-[Nva]C[Phg]T[Trp(7-aza)]E[Phe(4-F)][NMeS]HC[Nva]-NH2; linker 2-10 via mXylylene) , report its IC50.
403

----------
Experiment: Compound stability in human plasma
Type: in vitro ADME
Conditions: plasma (collected in sodium heparin), pH 7.4, 37° C., 10 μM, 4 hrs, read-out: Percent remaining at time (hrs): 4 hrs
Starred links: 1 amine or outer side, 2 acyl side, 3 side chain; linkers in the order of their positions; H or OH if unused. Positions of bridges follow the written chain, without caps; N, C: chain ends. Non-standard residues stand in square brackets, D forms with d. Residues, ends and D or L forms follow the SMILES beside them. Trp(7-aza) = N[C@@H](Cc1c[nH]c2ncccc12)C(=O)O; pXylylene = c1cc(C[*:2])ccc1C[*:1]; Phg = N[C@H](C(=O)O)c1ccccc1; NMeS = CN[C@@H](CO)C(=O)O; Nva = CCC[C@H](N)C(=O)O
metricName: remaining at 4 h, 10 μM
Quick note: unit goes after the number.

Recorded remaining at 4 h, 10 μM of CCC[C@H](NC(=O)[C@@H]1CSCc2ccc(cc2)CSC[C@H](NC(=O)[C@H](CCC)NC(C)=O)C(=O)N[C@@H](c2ccccc2)C(=O)N[C@@H]([C@@H](C)O)C(=O)N[C@@H](Cc2c[nH]c3ncccc23)C(=O)N[C@@H](CCC(=O)O)C(=O)N[C@@H](Cc2ccc(O)cc2)C(=O)N(C)[C@@H](CO)C(=O)N[C@@H](Cc2c[nH]cn2)C(=O)N1)C(N)=O [Compound R3050] (Ac-[Nva]C[Phg]T[Trp(7-aza)]EY[NMeS]HC[Nva]-NH2; linker 2-10 via pXylylene) , please.
100%

----------
Target: C5 (Homo sapiens, UniProt P01031)
Sequence (P01031 19-1676): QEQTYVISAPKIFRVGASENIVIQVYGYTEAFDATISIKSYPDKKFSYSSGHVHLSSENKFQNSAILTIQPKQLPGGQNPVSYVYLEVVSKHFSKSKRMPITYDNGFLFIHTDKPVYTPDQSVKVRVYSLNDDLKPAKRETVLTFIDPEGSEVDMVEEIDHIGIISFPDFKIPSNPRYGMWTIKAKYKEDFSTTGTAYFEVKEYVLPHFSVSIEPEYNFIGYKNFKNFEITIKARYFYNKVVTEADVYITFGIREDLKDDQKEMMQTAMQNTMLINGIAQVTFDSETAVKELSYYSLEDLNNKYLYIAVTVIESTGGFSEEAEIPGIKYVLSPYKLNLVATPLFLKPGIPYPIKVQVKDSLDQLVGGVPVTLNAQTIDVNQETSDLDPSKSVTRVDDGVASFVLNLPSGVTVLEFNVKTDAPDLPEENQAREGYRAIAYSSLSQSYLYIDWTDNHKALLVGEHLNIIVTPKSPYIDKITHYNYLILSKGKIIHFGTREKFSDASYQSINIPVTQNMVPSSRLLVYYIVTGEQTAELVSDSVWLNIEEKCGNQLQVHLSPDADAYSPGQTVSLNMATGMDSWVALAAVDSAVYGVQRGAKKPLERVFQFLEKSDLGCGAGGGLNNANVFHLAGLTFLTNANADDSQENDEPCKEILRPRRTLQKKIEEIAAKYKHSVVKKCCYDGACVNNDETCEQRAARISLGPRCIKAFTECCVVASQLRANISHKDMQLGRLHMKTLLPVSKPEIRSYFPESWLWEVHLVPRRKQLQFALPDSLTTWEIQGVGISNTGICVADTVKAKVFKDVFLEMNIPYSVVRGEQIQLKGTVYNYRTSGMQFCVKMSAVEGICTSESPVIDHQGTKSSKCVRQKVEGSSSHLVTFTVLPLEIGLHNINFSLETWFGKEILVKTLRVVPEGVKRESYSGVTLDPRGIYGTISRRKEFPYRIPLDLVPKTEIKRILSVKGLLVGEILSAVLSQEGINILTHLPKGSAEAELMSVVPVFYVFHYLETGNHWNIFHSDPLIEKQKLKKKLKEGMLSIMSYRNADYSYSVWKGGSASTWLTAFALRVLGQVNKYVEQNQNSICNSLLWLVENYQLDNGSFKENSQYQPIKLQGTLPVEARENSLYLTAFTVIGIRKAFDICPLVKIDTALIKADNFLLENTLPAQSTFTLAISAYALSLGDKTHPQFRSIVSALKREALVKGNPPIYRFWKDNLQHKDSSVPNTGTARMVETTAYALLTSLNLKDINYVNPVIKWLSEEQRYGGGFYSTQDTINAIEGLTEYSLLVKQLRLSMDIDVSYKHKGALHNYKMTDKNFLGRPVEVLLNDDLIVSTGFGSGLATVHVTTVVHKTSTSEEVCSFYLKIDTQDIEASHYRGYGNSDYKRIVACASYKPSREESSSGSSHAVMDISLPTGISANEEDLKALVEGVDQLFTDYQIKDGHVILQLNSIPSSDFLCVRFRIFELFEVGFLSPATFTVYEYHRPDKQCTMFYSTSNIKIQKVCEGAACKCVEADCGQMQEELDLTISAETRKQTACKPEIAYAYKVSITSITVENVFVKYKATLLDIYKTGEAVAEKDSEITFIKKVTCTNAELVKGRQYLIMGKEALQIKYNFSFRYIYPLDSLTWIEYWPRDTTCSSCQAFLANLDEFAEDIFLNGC
Assay: Competitive fluorescence polarization assay with probe R3076
Format: binding
Set-up: purchased Complement Technology, Tyler, Tex
Details: competition with probe R3076 25 nM, C5 50 nM, 60 min at 25° C.; experiment 2; read-out: Ki nM, Exp 2
Starred links: 1 amine or outer side, 2 acyl side, 3 side chain; linkers in the order of their positions; H or OH if unused. Positions of bridges follow the written chain, without caps; N, C: chain ends. Non-standard residues stand in square brackets, D forms with d. Residues, ends and D or L forms follow the SMILES beside them. Trp(7-aza) = N[C@@H](Cc1c[nH]c2ncccc12)C(=O)O; mXylylene = c1cc(C[*:1])cc(C[*:2])c1; pXylylene = c1cc(C[*:2])ccc1C[*:1]; Phg = N[C@H](C(=O)O)c1ccccc1; Tle = CC(C)(C)[C@H](N)C(=O)O; NMeS = CN[C@@H](CO)C(=O)O; Nva = CCC[C@H](N)C(=O)O
Response field label takes rule met when Ki is strictly below 90 nM and rule not met in all other cases.

Look over these answered cases.
molecule	targetDesc	cat
CCC[C@H](NC(C)=O)C(=O)N[C@@H](CS)C(=O)N[C@@H](Cc1ccc(O)cc1)C(=O)N[C@@H](CCC(=O)O)C(=O)N[C@@H](CC(N)=O)C(=O)N[C@H](C(=O)N[C@@H](Cc1ccc(O)cc1)C(=O)N[C@@H](Cc1c[nH]c2ncccc12)C(=O)N[C@@H](CCC(=O)O)C(=O)N[C@@H](Cc1ccc(O)cc1)C(=O)N1CCC[C@H]1C(=O)N[C@H](C(=O)N1CCC[C@H]1C(N)=O)c1ccccc1)C(C)(C)C [Compound R3003] (Ac-[Nva]CYEN[Tle]Y[Trp(7-aza)]EYP[Phg]P-NH2)	C5 (Homo sapiens, UniProt P01031)	rule met
CCC[C@H](NC(=O)[C@@H]1CSCc2ccc(cc2)CSC[C@H](NC(=O)[C@H](CCC)NC(C)=O)C(=O)N[C@@H](c2ccccc2)C(=O)N[C@@H]([C@@H](C)O)C(=O)N[C@@H](Cc2c[nH]c3ncccc23)C(=O)N[C@@H](CCC(=O)O)C(=O)N[C@@H](Cc2ccc(O)cc2)C(=O)N(C)[C@@H](CO)C(=O)N[C@@H](Cc2c[nH]cn2)C(=O)N1)C(N)=O [Compound R3050] (Ac-[Nva]C[Phg]T[Trp(7-aza)]EY[NMeS]HC[Nva]-NH2; linker 2-10 via pXylylene)	C5 (Homo sapiens, UniProt P01031)	rule met
CCC[C@H](NC(=O)[C@H](Cc1ccc(O)cc1)NC(=O)[C@H](CC(N)=O)NC(=O)[C@H](CCC)NC(=O)[C@H](CCC(=O)O)NC(=O)[C@@H](NC(=O)[C@H](Cc1c[nH]c2ncccc12)NC(=O)[C@@H](NC(=O)[C@H](CS)NC(=O)[C@H](Cc1ccc(O)cc1)NC(=O)[C@@H]1CCCN1C(=O)[C@H](Cc1ccc(O)cc1)NC(C)=O)c1ccccc1)C(C)(C)C)C(=O)N[C@@H](CCC(=O)O)C(N)=O [Compound R3023] (Ac-YPYC[Phg][Trp(7-aza)][Tle]E[Nva]NY[Nva]E-NH2)	C5 (Homo sapiens, UniProt P01031)	rule not met
CCC[C@H](NC(=O)[C@@H]1CCCN1C(=O)[C@H](CCC)NC(=O)[C@@H]1CSCc2cccc(c2)CSC[C@H](NC(C)=O)C(=O)N[C@@H](c2ccccc2)C(=O)N[C@@H]([C@@H](C)O)C(=O)N[C@@H](Cc2c[nH]c3ncccc23)C(=O)N[C@@H](CCC(=O)O)C(=O)N[C@@H](Cc2ccc(O)cc2)C(=O)N(C)[C@@H](CO)C(=O)N[C@@H](Cc2c[nH]cn2)C(=O)N1)C(N)=O [Compound R3014] (Ac-C[Phg]T[Trp(7-aza)]EY[NMeS]HC[Nva]P[Nva]-NH2; linker 1-9 via mXylylene)	C5 (Homo sapiens, UniProt P01031)	rule not met
CSCC[C@H](N)C(=O)N[C@H]1CSCc2cccc(c2)CSC[C@@H](C(=O)N[C@@H](CC(=O)O)C(=O)N[C@H](C(=O)N[C@@H](Cc2ccc(O)cc2)C(=O)N[C@@H](Cc2c[nH]c3ccccc23)C(=O)N[C@@H](CCC(=O)O)C(N)=O)C(C)C)NC(=O)[C@H](Cc2ccccc2)NC(=O)[C@H](CCCNC(=N)N)NC(=O)[C@H](CCC(=O)O)NC(=O)[C@H](C(C)C)NC1=O [Compound R3043, [mXylyl(2,7)]M-C-V-E-R-F-C-D-V-Y-W-E-NE2] (H-MCVERFCDVYWE-NH2; linker 2-7 via mXylylene)	C5 (Homo sapiens, UniProt P01031)	rule not met

Let's switch to this molecule now.
Could you please tell me whether Ki recorded for CCC[C@H](NC(C)=O)C(=O)N[C@H]1CSCc2cccc(c2)CSC[C@@H](C(=O)N[C@@H](CCC)C(=O)N2CCC[C@H]2C(N)=O)NC(=O)[C@H](Cc2c[nH]cn2)NC(=O)[C@H](CO)N(C)C(=O)[C@H](Cc2ccc(O)cc2)NC(=O)[C@H](CCC(=O)O)NC(=O)[C@H](Cc2c[nH]c3ncccc23)NC(=O)[C@H]([C@@H](C)O)NC(=O)[C@H](c2ccccc2)NC1=O [Compound R3011] (Ac-[Nva]C[Phg]T[Trp(7-aza)]EY[NMeS]HC[Nva]P-NH2; linker 2-10 via mXylylene) is less than 90 nM?
rule met
